Hello, the source for this data is paper PMC10397247, in case you need it.

Target: T1, 4H457-bH
T1 chain: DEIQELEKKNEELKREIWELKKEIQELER
Assay: two-hybrid library CCNG1;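 further: natural log of median RNA to DNA barcode read ratio; higher means stronger binding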
observed.property: interaction score

(A) DEIQELEKKIEELKRENWELKKEIQELKR [4H346-bH]
(B) DKIQELKKEIEELERENWELKKEIQELKR [4H2586-bH]
(C) DENQELEKENEELEREIWELEKKIQELKR [4H1158-bH]
Request: Would you mind ranking these binders by ascending interaction score? Return the labels ranked in the requested order, please.
Response: B, A, C
